test_description: Cellular Toxicity (caspase-3) N2a (AID 665);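 note: compound exposure lasted 16 h at 37 °C before readout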
condition_summary: N2a cells, luminescence; caspase-3 activation; series mostly up to 92.2 µM
Active and inactive are the calls of the source. Calls come from the whole dose curve; as a rule, active = well fitted activation curve with a large enough effect; inconclusive = small, poorly fitted or top-dose-only effect; inactive = flat fitted curve, though single readings scatter.
Return exactly one item of label 1 (active), label 0 (inactive)

>>> print(df.to_string())
                  substance_smiles      cat
0  CCn1cc(C(=O)O)c(=O)c2ccc(C)nc21  label 0

Query: recorded result category for "O=c1c(O)c(-c2ccc(O)cc2)oc2cc(O)cc(O)c12" in this test
label 0

What was the test verdict on "O=c1cc(-c2ccc(O)cc2)oc2cc(O)cc(O)c12" ?
label 0

Look up the recorded call for "CCCNC(=O)NS(=O)(=O)c1ccc(Cl)cc1" in this test.
label 0

Dear colleague, could you share the recorded outcome for "O=C1NC(=O)C(c2ccccc2)(c2ccccc2)N1" when you have a moment?
label 0

Hi, sorry to bother you, what did the test record for "O=c1c(-c2ccc(O)cc2)coc2cc(O)ccc12" ?
label 0

Record lookup: outcome of this test for "CCCCC1C(=O)N(c2ccccc2)N(c2ccccc2)C1=O" ?
label 0

GET /call?item= "O=c1[nH]cnc2c1ncn2[C@H]1CC[C@@H](CO)O1" returns the recorded outcome of this test.
label 0

What call does the record list for "O=C(O)c1cc(O)c2c(c1)C(=O)c1cccc(O)c1C2=O" ?
label 0

Identify the outcome logged in this assay for the compound shown: "CC1=C(/C=C/C(C)=C/C=C/C(C)=C/C(=O)Nc2ccc(O)cc2)C(C)(C)CCC1"
label 1
